# Tested on: SMMC-7721
# methodSummary: Antiproliferative activity against human SMMC7721 cells assessed as growth inhibition incubated up to 4 days by MTS assay
# Format: functional, cell-based
# appliedConditions: SMMC-7721, 96 h
pIC50: −log10 of the molar value.

{"columns": ["compound", "qualifier", "pIC50"],
 "data": [
  ["Cc1nc2ccccc2n1C(c1ccccc1)c1cc2ccccc2oc1=O (stereo not drawn)", "<", 4.70],
  ["Cc1cc2c(cc1C)[n+](CC(=O)c1ccccc1)cn2C(c1ccccc1)c1cc2ccccc2oc1=O (stereo not drawn)", "=", 5.14],
  ["O=C(C[n+]1ccn(C(c2ccccc2)c2cc3ccccc3oc2=O)c1)c1ccc(Br)cc1 (stereo not drawn)", "<", 4.70],
  ["O=c1oc2ccccc2cc1C(c1ccccc1)n1cnc2ccccc21 (stereo not drawn)", "<", 4.70],
  ["Cc1cc2c(cc1C)[n+](CC(=O)c1ccc(Br)cc1)cn2C(c1ccccc1)c1cc2ccccc2oc1=O.[Br-] (stereo not drawn)", "=", 5.38],
  ["Cc1n(C(c2ccccc2)c2cc3ccccc3oc2=O)c2ccccc2[n+]1CC(=O)c1ccc(Br)cc1 (stereo not drawn)", "<", 4.70],
  ["Cc1cc2c(cc1C)[n+](CC(=O)c1ccc3ccccc3c1)cn2C(c1ccccc1)c1cc2ccccc2oc1=O.[Br-] (stereo not drawn)", "=", 5.42],
  ["COc1ccc(C(=O)C[n+]2cn(C(c3ccccc3)c3cc4ccccc4oc3=O)c3cc(C)c(C)cc32)cc1.[Br-] (stereo not drawn)", "=", 5.33],
  ["O=C(C[n+]1ccn(C(c2ccccc2)c2cc3ccccc3oc2=O)c1)c1ccc2ccccc2c1 (stereo not drawn)", "<", 4.70],
  ["O=C(C[n+]1cn(C(c2ccccc2)c2cc3ccccc3oc2=O)c2ccccc21)c1ccc(C(F)(F)F)cc1 (stereo not drawn)", "=", 5.21],
  ["COc1ccc(C(=O)C[n+]2c(C)n(C(c3ccccc3)c3cc4ccccc4oc3=O)c3ccccc32)cc1 (stereo not drawn)", "=", 5.16],
  ["O=C(C[n+]1cn(C(c2ccccc2)c2cc3ccccc3oc2=O)c2ccccc21)c1ccc(Br)cc1 (stereo not drawn)", "=", 5.09],
  ["O=C(C[n+]1ccn(C(c2ccccc2)c2cc3ccccc3oc2=O)c1)c1ccc(C(F)(F)F)cc1 (stereo not drawn)", "<", 4.70],
  ["O=C(C[n+]1ccn(C(c2ccccc2)c2cc3ccccc3oc2=O)c1)c1ccc(-c2ccccc2)cc1 (stereo not drawn)", "<", 4.70],
  ["O=C(C[n+]1cn(C(c2ccccc2)c2cc3ccccc3oc2=O)c2ccccc21)c1ccc2ccccc2c1 (stereo not drawn)", "=", 5.24],
  ["COc1ccc(C(=O)C[n+]2ccn(C(c3ccccc3)c3cc4ccccc4oc3=O)c2)cc1 (stereo not drawn)", "<", 4.70],
  ["Cc1cc2c(cc1C)[n+](CC(=O)c1ccc(-c3ccccc3)cc1)cn2C(c1ccccc1)c1cc2ccccc2oc1=O (stereo not drawn)", "=", 5.72],
  ["Cc1n(C(c2ccccc2)c2cc3ccccc3oc2=O)c2ccccc2[n+]1CC(=O)c1ccccc1 (stereo not drawn)", "<", 4.70],
  ["O=C(C[n+]1cn(C(c2ccccc2)c2cc3ccccc3oc2=O)c2ccccc21)c1ccccc1 (stereo not drawn)", "<", 4.70],
  ["O=c1oc2ccccc2cc1C(c1ccccc1)n1ccnc1 (stereo not drawn)", "<", 4.70],
  ["Cc1cc2c(cc1C)[n+](CC(=O)c1ccc(C(F)(F)F)cc1)cn2C(c1ccccc1)c1cc2ccccc2oc1=O (stereo not drawn)", "=", 5.02],
  ["Cc1n(C(c2ccccc2)c2cc3ccccc3oc2=O)c2ccccc2[n+]1CC(=O)c1ccc(-c2ccccc2)cc1 (stereo not drawn)", "=", 5.30],
  ["O=C(C[n+]1cn(C(c2ccccc2)c2cc3ccccc3oc2=O)c2ccccc21)c1ccc(-c2ccccc2)cc1.[Br-] (stereo not drawn)", "=", 5.33],
  ["Cc1cc2ncn(C(c3ccccc3)c3cc4ccccc4oc3=O)c2cc1C (stereo not drawn)", "<", 4.70],
  ["O=C(C[n+]1ccn(C(c2ccccc2)c2cc3ccccc3oc2=O)c1)c1ccccc1 (stereo not drawn)", "<", 4.70],
  ["Cc1n(C(c2ccccc2)c2cc3ccccc3oc2=O)c2ccccc2[n+]1CC(=O)c1ccc(C(F)(F)F)cc1 (stereo not drawn)", "<", 4.70],
  ["Cc1n(C(c2ccccc2)c2cc3ccccc3oc2=O)c2ccccc2[n+]1CC(=O)c1ccc2ccccc2c1 (stereo not drawn)", "=", 4.94],
  ["COc1ccc(C(=O)C[n+]2cn(C(c3ccccc3)c3cc4ccccc4oc3=O)c3ccccc32)cc1 (stereo not drawn)", "=", 5.05]
]}
